Cited source: patent EP2768830B1

- Test system: mouse FL5.12 cells transfected with Bcl-XL
- PROTOCOL NOTES: FL5.12 cellular assay (cell viability, CellTiter-Glo)
- Assay type: cell-based
- STUDY CONDITIONS: FL5.12 cells transfected with Bcl-XL, IL-3-depleted, 3% FBS assay media, 24 hours, CellTiter-Glo; read-out: FL5.12 Bcl-xL, - IL3, EC 50
REPORTED PROPERTY: EC50

Would you please look over these solved cases?
molecular_string=COCCCC1(Cn2ncc(-c3ccc(N4CCc5cccc(C(=O)Nc6nc7ccccc7s6)c5C4)nc3C(=O)O)c2C)CCCCC1 reported_property=EC50 result="< 1 nM"
molecular_string=COc1cccc(Cn2cc(-c3ccc(N4CCc5cccc(C(=O)Nc6nc7ccccc7s6)c5C4)nc3C(=O)O)cn2)c1 reported_property=EC50 result="> 1000 nM"
molecular_string=O=C(Nc1nc2ccccc2s1)c1cccc2c1CN(c1ccc(-c3cccc(Oc4ccccc4)c3)c(C(=O)O)n1)CC2 reported_property=EC50 result="> 1000 nM"

# EC50 (compound: `O=C(Nc1nc2ccccc2s1)c1cccc2c1CN(c1ccc(-c3cnn(Cc4cccc(O)c4)c3)c(C(=O)O)n1)CC2` ) is > 1000 nM

The reported value for `O=C(Nc1nc2ccccc2s1)c1cccc2c1CN(c1ccc(-c3cnn(Cc4cc(F)cc(F)c4)c3)c(C(=O)O)n1)CC2` in terms of EC50 is 387 nM

---

pKi, GST-Bcl-xL (Homo sapiens, UniProt Q07817), per-entry values.
The value called pKi is obtained by taking minus log10 of the concentration in mol/L.

Examples from the recorded data:
compound=O=C(Nc1nc2ccccc2s1)c1cccc2c1CN(c1ccc(-c3cnn(Cc4ccccc4S(=O)(=O)N4CCOCC4)c3)c(C(=O)O)n1)CC2 measurement_target="GST-Bcl-xL (Homo sapiens, UniProt Q07817)" quantitative_readout=7.55
compound=O=C(Nc1nc2ccccc2s1)c1cccc2c1CN(c1ccc(-c3cnn(Cc4ccccc4N4CCOCC4)c3)c(C(=O)O)n1)CC2 measurement_target="GST-Bcl-xL (Homo sapiens, UniProt Q07817)" quantitative_readout=7.54
compound=O=C(Nc1nc2ccccc2s1)c1cccc2c1CN(c1ccc(-c3cccc(Cc4ccccc4)c3)c(C(=O)O)n1)CC2 measurement_target="GST-Bcl-xL (Homo sapiens, UniProt Q07817)" quantitative_readout=10.00
compound=O=C(Nc1nc2ccccc2s1)c1cccc2c1CN(c1ccc(-c3ccc(N4CCc5cccc(C(=O)Nc6nc7ccccc7s6)c5C4)nc3C(=O)O)c(C(=O)O)n1)CC2 measurement_target="GST-Bcl-xL (Homo sapiens, UniProt Q07817)" quantitative_readout=8.52
compound=O=C(Nc1nc2ccc(F)cc2s1)c1cccc2c1CN(c1ccc(-c3cnn(Cc4ccccc4)c3)c(C(=O)O)n1)CC2 measurement_target="GST-Bcl-xL (Homo sapiens, UniProt Q07817)" quantitative_readout=7.17

Entry `Cc1ccc(-c2ccc(N3CCc4cccc(C(=O)Nc5nc6ccccc6s5)c4C3)nc2C(=O)O)cc1Oc1ccccc1` , GST-Bcl-xL (Homo sapiens, UniProt Q07817) data, pKi value: 8.05

Summary line: `Cc1ccc(S(=O)(=O)n2ccc(-c3ccc(N4CCc5cccc(C(=O)Nc6nc7ccccc7s6)c5C4)nc3C(=O)O)c2)cc1` , GST-Bcl-xL (Homo sapiens, UniProt Q07817), reported pKi = 7.33

Lab note: compound `O=C(Nc1nc2ccccc2s1)c1cccc2c1CN(c1ccc(-c3cccc(Oc4ccccc4)c3)c(C(=O)O)n1)CC2` tested on GST-Bcl-xL (Homo sapiens, UniProt Q07817); recorded pKi was 9.22

Here `Cc1c(-c2ccc(N3CCc4cccc(C(=O)Nc5nc6ccccc6s5)c4C3)nc2C(=O)O)cnn1Cc1ccccc1OCCN1CCOCC1` was tested on GST-Bcl-xL (Homo sapiens, UniProt Q07817), and its pKi came to 9.30

Case `COCCCC1(Cn2ncc(-c3ccc(N4CCc5cccc(C(=O)Nc6nc7ccccc7s6)c5C4)nc3C(=O)O)c2C)CCCCC1` , GST-Bcl-xL (Homo sapiens, UniProt Q07817), pKi recorded as 8.70

Reading of pKi for `O=C(Nc1nc2ccccc2s1)c1cccc2c1CN(c1ccc(-c3cnn(Cc4cccc(Cl)c4)c3)c(C(=O)O)n1)CC2` with GST-Bcl-xL (Homo sapiens, UniProt Q07817): 8.22

Let me check: `O=C(Nc1nc2ccccc2s1)c1cccc2c1CN(c1ccc(-c3cnn(Cc4c(F)cccc4F)c3)c(C(=O)O)n1)CC2` , system GST-Bcl-xL (Homo sapiens, UniProt Q07817), measured pKi is 7.74

Record `Cc1cc(Oc2ccccc2)ccc1-c1ccc(N2CCc3cccc(C(=O)Nc4nc5ccccc5s4)c3C2)nc1C(=O)O` ; system GST-Bcl-xL (Homo sapiens, UniProt Q07817); pKi = 7.68

The reported GST-Bcl-xL (Homo sapiens, UniProt Q07817) pKi of Cc1c(-c2ccc(N3CCc4cccc(C(=O)Nc5nc6ccccc6s5)c4C3C)nc2C(=O)O)cnn1CC1(C)CCCCC1 (centres unmarked) is 9.40

The value of pKi recorded for `Cc1c(-c2ccc(N3CCc4cccc(C(=O)Nc5nc6ccccc6s5)c4C3)nc2C(=O)O)cnn1CC1(C)CCCCC1` when tested on GST-Bcl-xL (Homo sapiens, UniProt Q07817) reads 9.30

---

- Tested on: mouse FL5.12 cells transfected with Bcl-XL
- PROTOCOL NOTES: FL5.12 cellular assay (cell viability, CellTiter-Glo)
- Assay type: cell-based
- STUDY CONDITIONS: FL5.12 cells transfected with Bcl-XL, IL-3-depleted, 3% FBS assay media, 24 hours, CellTiter-Glo; read-out: FL5.12 Bcl-xL, - IL3, EC 50
Overview of reported pEC50 across a group of molecules:
# reply with the number alone; pEC50 is -log10 of concentration in mol/L

molecule="O=C(Nc1nc2ccccc2s1)c1cccc2c1CN(c1ccc(-c3cccc(OC4CCCCC4)c3F)c(C(=O)O)n1)CC2 [Example 119]" reported_property=pEC50 quantitative_readout=6.12

Item Cc1c(CC2CCCCC2)cccc1-c1ccc(N2CCc3cccc(C(=O)Nc4nc5ccccc5s4)c3C2)nc1C(=O)O [Example 107] ; assay system mouse FL5.12 cells transfected with Bcl-XL; pEC50 reported as 8.00

pEC50 for mouse FL5.12 cells transfected with Bcl-XL with input O=C(Nc1nc2ccccc2s1)c1cccc2c1CN(c1ccc(-c3ccn(Cc4ccccc4)c3)c(C(=O)O)n1)CC2 [Example 125] equals 6.28

---

Let's go through some recorded Ki values for GST-Bcl-xL (Homo sapiens) together.
Provide the reading as a plain figure in nM.

molecular_string=O=C(Nc1nc2ccccc2s1)c1cccc2c1CN(c1ccc(-c3cnn(Cc4cccnc4)c3)c(C(=O)O)n1)CC2 measurement_target="GST-Bcl-xL (Homo sapiens)" quantitative_readout=258
molecular_string=CCc1c(-c2ccc(N3CCc4cccc(C(=O)Nc5nc6ccccc6s5)c4C3)nc2C(=O)O)cnn1CC1CCCCC1 measurement_target="GST-Bcl-xL (Homo sapiens)" quantitative_readout=0.7
molecular_string=Cc1c(-c2ccc(N3CCc4cccc(C(=O)Nc5nc6ccccc6s5)c4C3)nc2C(=O)O)c(CO)nn1Cc1ccccc1 measurement_target="GST-Bcl-xL (Homo sapiens)" quantitative_readout=2
molecular_string=O=C(Nc1nc2ccccc2s1)c1cccc2c1CN(c1ccc(-c3cn(Cc4ccccc4)c4ncccc34)c(C(=O)O)n1)CC2 measurement_target="GST-Bcl-xL (Homo sapiens)" quantitative_readout=1

Pending compound:
Entry `O=C(Nc1nc2ccccc2s1)c1cccc2c1CN(c1ccc(-c3cnn(CC4CCCCC4)c3C3CC3)c(C(=O)O)n1)CC2` , GST-Bcl-xL (Homo sapiens) data, Ki value: 5

---

- MEASUREMENT TARGET: GST-Bcl-xL (Homo sapiens, UniProt Q07817)
- Sequence (Q07817 whole entry): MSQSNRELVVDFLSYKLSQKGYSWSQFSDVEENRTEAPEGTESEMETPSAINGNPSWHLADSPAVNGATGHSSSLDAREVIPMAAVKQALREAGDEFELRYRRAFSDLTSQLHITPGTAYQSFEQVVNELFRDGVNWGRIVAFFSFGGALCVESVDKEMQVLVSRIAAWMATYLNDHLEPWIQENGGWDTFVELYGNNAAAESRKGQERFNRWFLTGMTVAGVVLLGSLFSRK
REPORTED PROPERTY: Ki

# count of solved cases: 2
compound=CCOC(=O)c1cc(-c2ccc(N3CCc4cccc(C(=O)Nc5nc6ccccc6s5)c4C3)nc2C(=O)O)c(C)n1Cc1ccccc1 measurement_target="GST-Bcl-xL (Homo sapiens, UniProt Q07817)" reported_property=Ki result="< 100 pM"
compound="CNCCOC1(Cn2ncc(-c3ccc(N4CCc5cccc(C(=O)Nc6nc7ccccc7s6)c5C4)nc3C(=O)O)c2C)CCCC(C)(C)C1 (stereo not drawn)" measurement_target="GST-Bcl-xL (Homo sapiens, UniProt Q07817)" reported_property=Ki result="< 100 pM"

// next item, Ki requested
// compound `Cc1c(-c2ccc(N3CCc4cccc(C(=O)Nc5nc6ccccc6s5)c4C3)nc2C(=O)O)cnn1CC1(OCCN2CCS(=O)(=O)CC2)CCCCC1` , assay GST-Bcl-xL (Homo sapiens, UniProt Q07817), Ki value: < 100 pM

---

- Test system: mouse FL5.12 cells transfected with Bcl-XL
- PROTOCOL NOTES: FL5.12 cellular assay (cell viability, CellTiter-Glo);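 further: each EC50 determination derived from duplicate measurements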
- Assay type: cell-based
- STUDY CONDITIONS: FL5.12 cells transfected with Bcl-XL, IL-3-depleted, 3% FBS assay media, 24 hours, CellTiter-Glo; read-out: FL5.12 Bcl-xL, - IL3, EC 50
pEC50: −log10 of the molar value.
Overview of recorded pEC50 for various compounds

Some solved entries appear below for comparison.
molecular_string=COCCCC1(Cn2ncc(-c3ccc(N4CCc5cccc(C(=O)Nc6nc7ccccc7s6)c5C4)nc3C(=O)O)c2C)CCCCCC1 reported_property=pEC50 result=9.00
molecular_string=COc1ccc2nc(NC(=O)c3cccc4c3CN(c3ccc(-c5cnn(Cc6ccccc6)c5)c(C(=O)O)n3)CC4)sc2c1 reported_property=pEC50 result="< 6.00"
molecular_string=O=C(Nc1nc2ccccc2s1)c1cccc2c1CN(c1ccc(-c3cnn(Cc4cccnc4)c3)c(C(=O)O)n1)CC2 reported_property=pEC50 result="< 6.00"
molecular_string=O=C(Nc1nc2cccc(Cl)c2s1)c1cccc2c1CN(c1ccc(-c3cnn(Cc4ccccc4)c3)c(C(=O)O)n1)CC2 reported_property=pEC50 result="< 6.00"

Input `O=C(Nc1nc2ccccc2s1)c1cccc2c1CN(c1ccc(-c3cnn(CCc4ccccc4)c3)c(C(=O)O)n1)CC2` . Output pEC50: < 6.00
